# test.system: Sialic acid-binding Ig-like lectin 9 (Homo sapiens) (UniProt Q9Y336)
# Sequence (Q9Y336 whole entry): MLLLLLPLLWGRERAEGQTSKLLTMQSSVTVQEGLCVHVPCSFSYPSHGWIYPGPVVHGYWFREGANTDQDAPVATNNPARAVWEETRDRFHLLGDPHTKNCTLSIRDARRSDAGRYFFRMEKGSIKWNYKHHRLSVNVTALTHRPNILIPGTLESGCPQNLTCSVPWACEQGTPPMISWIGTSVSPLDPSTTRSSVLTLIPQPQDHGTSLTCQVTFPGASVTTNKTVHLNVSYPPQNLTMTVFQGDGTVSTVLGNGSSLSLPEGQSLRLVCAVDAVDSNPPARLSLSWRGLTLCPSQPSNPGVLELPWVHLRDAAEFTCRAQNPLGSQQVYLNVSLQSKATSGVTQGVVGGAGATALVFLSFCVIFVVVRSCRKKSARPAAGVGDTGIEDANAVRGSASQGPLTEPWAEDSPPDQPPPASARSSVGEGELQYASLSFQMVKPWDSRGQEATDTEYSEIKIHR
# experiment.notes: Hs-Siglec9 ALPHAscreen SOP 20170721
# Design: scale not given: direction of the effect not stated beside the values
# experimental.setup: 10 µM

| compound | unit.string | Percent Effect |
| --- | --- | --- |
| O=C(CCN1CCC(C(=O)c2cc(F)ccc2F)CC1)NC1CC1 | % | 2.22 |
| Cc1c[nH]nc1C1CCN(S(=O)(=O)N(C)C)CC1 | % | 1.12 |
| CC(C)N(C)C(=O)C1=NOC2(CCN(C(=O)c3ccc(Cl)cc3)C2)C1 (centres undefined) | % | 5.19 |
| Cc1nnc(N2CCC(CN(C)C(C)C)CC2)c(C#N)c1C | % | -13.1 |
| O=C1CC2(CCN(c3nncs3)C2)CN1c1ccccc1 (centres undefined) | % | 2.02 |
| CO[C@H]1CCN(S(=O)(=O)c2cn(C)cn2)[C@H]1Cc1cccnc1 | % | -5.55 |
| CN(CCCNC(=O)N1CCCC1c1ccsc1)c1ccccn1 (centres undefined) | % | -0.894 |
| CN(Cc1cccc(F)c1)S(=O)(=O)N1CCOCC1 | % | -0.448 |
| Cc1cc(C(=O)NCC2COCc3c(C)nnn3C2)no1 (centres undefined) | % | 3.99 |
| O=C(Cn1ccc2ccc(Br)cc21)NCc1ccc(C(=O)O)cc1 | % | -0.116 |
| O=C(c1ccccn1)N1C[C@@H]2CC[C@H](C1)N(C(=O)CCc1cccs1)C2 | % | 9.38 |
| CCOCC1CN(Cc2cccc(C#N)c2)Cc2nccn2C1 (centres undefined) | % | 1.44 |
| CCSCCC(=O)Nc1ncn(CC(=O)NCc2ccccc2)n1 | % | 16.7 |
| CC(C)c1cnc(CNc2c(F)cccc2-n2cccn2)o1 | % | 6.14 |
| CC(C)NC(=O)COc1nc(C(C)C)no1 | % | 41.5 |
| COc1c(CNCC(c2cccc(F)c2)N(C)C)c(C(C)C)nn1C (centres undefined) | % | -6.06 |
| O=C(C1CCOC1)N1C[C@H]2CN(Cc3nccs3)C[C@H]2C1 (some centres undefined) | % | -7.15 |
| Cc1nc(C)n(CC2CCCN2CCCOc2ccc(F)cc2)n1 (centres undefined) | % | -1.58 |
| CC(C)CCOCCNC(=O)Nc1cc(C(F)(F)F)c[nH]c1=O | % | 2.66 |
| COc1ccc2nnc(CCCC(=O)NCCC3=CCCCC3)n2n1 | % | -0.0396 |
| O=C(CCc1ccc(O)cc1)N1CCC(Cc2ccc(CO)cc2)C1 (centres undefined) | % | -5.94 |
| CCc1nnc2n1CCN(C(=O)CN(C)Cc1ccccc1)C2 | % | 7.43 |
| CCc1nnsc1C(=O)NC1CCN(c2ccccn2)CC1 | % | 8.18 |
| COCC1c2c(cnn2CC2CC2)CCN1Cc1cccs1 (centres undefined) | % | 7.58 |
